For each of the compounds below, state its inhibition.
measured-target: Integrin beta-1 (Homo sapiens) + Integrin alpha-4 (Homo sapiens) (UniProt P13612+P05556)
Sequence (P05556 whole entry, looked up): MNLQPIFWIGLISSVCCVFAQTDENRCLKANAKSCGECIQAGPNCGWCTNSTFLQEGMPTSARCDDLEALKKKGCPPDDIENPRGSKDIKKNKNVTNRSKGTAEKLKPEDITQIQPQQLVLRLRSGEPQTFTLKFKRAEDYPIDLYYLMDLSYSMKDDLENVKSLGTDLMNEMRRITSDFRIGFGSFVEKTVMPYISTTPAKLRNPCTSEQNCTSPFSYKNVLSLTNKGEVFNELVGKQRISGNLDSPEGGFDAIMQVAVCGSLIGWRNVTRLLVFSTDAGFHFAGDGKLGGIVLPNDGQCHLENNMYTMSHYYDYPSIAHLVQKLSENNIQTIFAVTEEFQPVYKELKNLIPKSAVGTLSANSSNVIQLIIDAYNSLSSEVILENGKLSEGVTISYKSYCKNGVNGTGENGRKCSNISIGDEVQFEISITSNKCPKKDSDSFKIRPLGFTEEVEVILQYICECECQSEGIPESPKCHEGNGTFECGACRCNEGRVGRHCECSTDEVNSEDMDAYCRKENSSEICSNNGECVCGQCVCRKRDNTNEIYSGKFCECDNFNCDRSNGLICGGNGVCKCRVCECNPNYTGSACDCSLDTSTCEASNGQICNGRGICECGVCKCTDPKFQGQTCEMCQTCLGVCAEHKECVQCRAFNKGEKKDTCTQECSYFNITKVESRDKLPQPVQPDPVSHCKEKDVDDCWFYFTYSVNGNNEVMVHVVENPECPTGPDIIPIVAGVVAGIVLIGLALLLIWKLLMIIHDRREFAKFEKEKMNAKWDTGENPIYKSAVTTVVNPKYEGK
Sequence (P13612 whole entry, looked up): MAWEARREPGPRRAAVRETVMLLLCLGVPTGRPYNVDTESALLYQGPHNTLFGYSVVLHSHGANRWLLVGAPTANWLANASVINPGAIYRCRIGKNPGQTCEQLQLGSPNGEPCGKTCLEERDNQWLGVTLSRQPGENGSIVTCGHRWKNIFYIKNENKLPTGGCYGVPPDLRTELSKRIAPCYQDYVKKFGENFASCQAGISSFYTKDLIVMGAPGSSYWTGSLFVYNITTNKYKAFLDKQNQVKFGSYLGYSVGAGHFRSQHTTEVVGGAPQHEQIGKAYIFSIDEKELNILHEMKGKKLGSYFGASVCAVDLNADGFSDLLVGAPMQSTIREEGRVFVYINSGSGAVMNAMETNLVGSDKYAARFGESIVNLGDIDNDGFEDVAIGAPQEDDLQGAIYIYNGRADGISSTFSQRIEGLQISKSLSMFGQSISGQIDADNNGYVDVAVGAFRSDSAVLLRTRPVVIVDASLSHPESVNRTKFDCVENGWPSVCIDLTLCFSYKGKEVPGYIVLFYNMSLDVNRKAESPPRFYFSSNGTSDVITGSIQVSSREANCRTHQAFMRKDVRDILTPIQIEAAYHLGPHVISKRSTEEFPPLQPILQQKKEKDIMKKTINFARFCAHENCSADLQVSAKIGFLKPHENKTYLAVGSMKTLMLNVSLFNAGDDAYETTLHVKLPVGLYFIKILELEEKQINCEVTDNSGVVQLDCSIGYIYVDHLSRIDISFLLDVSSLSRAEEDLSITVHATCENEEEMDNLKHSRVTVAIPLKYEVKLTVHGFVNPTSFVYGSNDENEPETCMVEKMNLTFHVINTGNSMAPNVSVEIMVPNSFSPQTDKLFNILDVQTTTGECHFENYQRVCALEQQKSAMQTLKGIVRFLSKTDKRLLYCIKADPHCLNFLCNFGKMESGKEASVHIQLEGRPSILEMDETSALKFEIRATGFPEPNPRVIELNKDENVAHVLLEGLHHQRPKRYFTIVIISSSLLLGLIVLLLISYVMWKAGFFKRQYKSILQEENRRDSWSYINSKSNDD
assay-method-text: alpha4beta1 integrin LIBS antibody binding reduction – U937 cells, HUTS-21 mAb, flow cytometry, validation set, VLA-4 allosteric modulator project, pilot screen (AID 2674);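 also: antibody binding induced by the VLA-4 ligand LDV present at three times its Kd; 0% = LDV ligand with antibody and no compound and 100% = antibody without LDV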
run-conditions: HUTS-21 LIBS mAb binding, at 6.7 µM, stronger effect = higher value, binding induced by LDV ligand
Activity calls are given as the source filed them.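 The calls were made as follows: active = inhibition above 50%, about 3 SD of the validation set; inactive = the rest.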

# get_value(readout='inhibition', item= `CCCc1cc(C(N)=S)ccn1` )
0.94% (inactive)

What does the data say about its inhibition? Entry: `O=C(NCCNc1ccc(Cl)cc1[N+](=O)[O-])c1cccnc1`
5.41% (inactive)

Could you share which inhibition value was measured for `O=C(NCCO)c1ccc2[nH]c3ccccc3c2c1` ?
-0.45% (inactive)

---

measured-target: GTPase HRas (Homo sapiens) (UniProt P01112)
Sequence (P01112 whole entry, looked up): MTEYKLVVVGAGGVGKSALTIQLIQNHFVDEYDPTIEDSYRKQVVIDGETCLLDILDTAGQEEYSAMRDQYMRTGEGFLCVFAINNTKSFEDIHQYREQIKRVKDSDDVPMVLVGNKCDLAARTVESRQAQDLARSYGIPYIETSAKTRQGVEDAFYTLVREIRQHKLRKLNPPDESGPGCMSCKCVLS
assay-method-text: Ras wt fluorescent GTP loading blockade – biochemical, wildtype, multiplex bead flow cytometry, dose response (AID 1335)
run-conditions: bead-based flow cytometry, Bodipy-GTP binding to GST-Ras; at 100 µM (top of the series) unless noted
Give measured GTP binding, percent of control for each item. Keep answers brief.
# output: bare number, implied unit %

Entry `O=C(O)C1(NCc2ccccc2Cl)CCCCC1` , system GTPase HRas (Homo sapiens) (UniProt P01112): what GTP binding, percent of control was measured?
91.3

Kindly state the measured GTP binding, percent of control obtained for `Cc1cc(NS(=O)(=O)c2ccc(Nc3nc(-c4sc(N)nc4C)cs3)cc2)no1` with GTPase HRas (Homo sapiens) (UniProt P01112).
58.3

Provide value of GTP binding, percent of control for this record tested with GTPase HRas (Homo sapiens) (UniProt P01112): `Cc1ccc(C)c(OCCn2cc(C(=O)O)c3ccccc32)c1`
91.6

Lab request: please report GTP binding, percent of control under test system GTPase HRas (Homo sapiens) (UniProt P01112) for `O=C(O)c1cc(-c2ccc(/C=C3/SC(=S)N(Cc4ccccc4)C3=O)o2)ccc1Cl`
61.5

Param readout = GTP binding, percent of control; param system = GTPase HRas (Homo sapiens) (UniProt P01112); param query = `Cc1nnc(SCCN2CCOCC2)c2nn(-c3ccccc3F)c(C)c12` ; response: value
61.1

---

measured-target: Cell division control protein 42 homolog (Homo sapiens)
assay-method-text: inhibition of fluorescent GTP binding to wildtype Cdc42 – biochemical, multiplex bead flow cytometry, Bodipy-FL-GTP, dose response (AID 1334)
run-conditions: bead-based flow cytometry, Bodipy-FL-GTP binding to GST-Cdc42; at 100 µM (top of the series) unless noted
Measured potencies and affinities stand elsewhere.
Give fluorescence, percent of control (lower = inhibition) for every item shown.
Provide only the numeric value, understood in %.

For the molecule shown here, `O=C(O)/C=C/C(=O)Nc1cccnc1` , give the reported fluorescence, percent of control (lower = inhibition).
50.8

# query: fluorescence, percent of control (lower = inhibition) of entry `COc1ccc(C(=O)N[C@H](C(=O)OCc2cc(=O)oc3cc(C)ccc23)C(C)C)cc1`
50.4

Quick check: fluorescence, percent of control (lower = inhibition) of `CCCc1cc(NCc2ccccn2)n2c(nc3ccccc32)c1C#N` ?
30.1

# fluorescence, percent of control (lower = inhibition) lookup, item `CCn1c2ccccc2c2nnc(SCC(=O)NCCOC)nc21`
50.8
